The entries below come with measured β1 receptor I.A. values attached.
molecular target: human β1-adrenoceptor (Homo sapiens, UniProt P08588); construct: Both ends of a domain including full length of human β1-adrenoceptor were amplified; expressed in transfected cells; host or cells: CHO cells; assay: Agonistic activities on human β1-adrenoceptor (cAMP in transfected CHO cells); format: cell-based; conditions: intrinsic activity: maximum reaction relative to isoproterenol maximum (100%)
Sequence (P08588 whole entry): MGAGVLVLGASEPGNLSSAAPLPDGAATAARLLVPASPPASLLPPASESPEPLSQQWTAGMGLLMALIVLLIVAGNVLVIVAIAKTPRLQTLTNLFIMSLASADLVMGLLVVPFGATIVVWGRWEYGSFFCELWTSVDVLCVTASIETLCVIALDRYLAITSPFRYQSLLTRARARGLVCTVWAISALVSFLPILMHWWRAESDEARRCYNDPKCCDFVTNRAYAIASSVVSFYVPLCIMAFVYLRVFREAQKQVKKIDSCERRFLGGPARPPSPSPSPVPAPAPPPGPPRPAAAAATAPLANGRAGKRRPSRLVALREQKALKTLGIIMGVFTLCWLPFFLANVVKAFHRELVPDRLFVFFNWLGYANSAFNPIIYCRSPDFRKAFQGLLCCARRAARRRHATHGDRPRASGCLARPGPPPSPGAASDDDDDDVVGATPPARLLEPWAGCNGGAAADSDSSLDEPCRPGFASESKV

Examples with answers:
>>> observed("CC(C)c1cc(C(=O)O)ccc1-c1ccc(OCCN[C@@H](C)[C@H](O)c2ccc(O)cc2)cc1")
"87%"
>>> observed("Cc1cc(-c2ccc(C(=O)O)c(C(C)C)c2)cc(C)c1OCCN[C@@H](C)[C@H](O)c1ccc(O)cc1")
"45%"
>>> observed("CCCc1cc(C(=O)O)ccc1-c1ccc(OCCN[C@@H](C)[C@H](O)c2ccc(O)cc2)cc1")
"62%"
>>> observed("CCc1cc(C(=O)O)ccc1-c1ccc(OCCN[C@@H](C)[C@H](O)c2ccc(O)cc2)cc1")
"57%"
>>> observed("CCCc1cc(C(=O)O)ccc1-c1cc(C)c(OCCN[C@@H](C)[C@H](O)c2ccc(O)cc2)c(C)c1")
"74%"

Next item in the queue.
[Q] I'd like to know its β1 receptor I.A.. The compound in question is O=C(O)c1cccc(-c2cccc(OCCNC[C@H](O)c3cccc(Cl)c3)c2)c1 [Comparison, reference compound]
[A] 60%

----------
biological target: human β1-adrenoceptor (Homo sapiens, UniProt P08588); construct: Both ends of a domain including full length of human β1-adrenoceptor were amplified; expressed in transfected cells; host or cells: CHO cells; experiment: Agonistic activities on human β1-adrenoceptor (cAMP in transfected CHO cells); format: cell-based; details: read-out: β1 receptor EC50
Measured EC50, listed per entry.
Report only the number, with the unit µM understood.

These solved cases illustrate the format of a correct answer.
>>> observed("CC(C)c1cc(C(=O)O)ccc1-c1ccc(OCCN[C@@H](C)[C@H](O)c2ccc(O)cc2)cc1")
18.9
>>> observed("CCCc1cc(C(=O)O)ccc1-c1ccc(OCCN[C@@H](C)[C@H](O)c2ccc(O)cc2)cc1")
0.79
>>> observed("CCc1cc(C(=O)O)ccc1-c1ccc(OCCN[C@@H](C)[C@H](O)c2ccc(O)cc2)cc1")
4.32

Next, consider the following molecule.
[Q] // EC50 lookup, key: `CCCc1cc(C(=O)O)ccc1-c1cc(C)c(OCCN[C@@H](C)[C@H](O)c2ccc(O)cc2)c(C)c1`
[A] 2.28

----------
biological target: β2-adrenoceptor (Rattus norvegicus); construct: The uterus of pregnant SD rat (Day 21 of gestation) was isolated and longitudinal muscle strip; from tissue; host or cells: pregnant SD rat uterus, longitudinal muscle strip; assay: β2-adrenoceptor stimulation in isolated tissue: inhibition of spontaneous contraction of pregnant rat uterus (Magnus method); design: species or system SD rat; settings: read-out: β2 receptor EC50
Sequence (P10608 whole entry): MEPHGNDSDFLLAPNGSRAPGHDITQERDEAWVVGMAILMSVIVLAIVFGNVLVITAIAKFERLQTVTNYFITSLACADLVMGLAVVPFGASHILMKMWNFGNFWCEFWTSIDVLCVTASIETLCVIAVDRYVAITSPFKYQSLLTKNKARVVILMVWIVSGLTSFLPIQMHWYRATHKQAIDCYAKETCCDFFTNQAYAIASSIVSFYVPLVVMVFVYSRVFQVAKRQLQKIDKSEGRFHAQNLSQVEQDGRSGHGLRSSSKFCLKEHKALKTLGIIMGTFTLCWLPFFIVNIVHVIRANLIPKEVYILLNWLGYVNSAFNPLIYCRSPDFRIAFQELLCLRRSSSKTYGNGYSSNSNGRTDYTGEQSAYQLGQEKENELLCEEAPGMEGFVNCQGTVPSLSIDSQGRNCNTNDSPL
Listed below: pEC50 values for each entry.
The meaning of pEC50 here: minus log10 of the concentration in molar units.

>>> observed("CC(C)c1cc(C(=O)O)ccc1-c1ccc(OCCN[C@@H](C)[C@H](O)c2ccc(O)cc2)cc1")
5.23

Moving on to the next compound.
[Q] So what pEC50 did `CCc1cc(C(=O)O)ccc1-c1ccc(OCCN[C@@H](C)[C@H](O)c2ccc(O)cc2)cc1` get with β2-adrenoceptor (Rattus norvegicus)?
[A] 5.57

----------
Test: Transport study using human intestinal epithelium tissue (Caco-2)
Assay type: in vitro ADME
Conditions: inside (pH 6.0) to outside (pH 7.4), 37° C., read-out: permeability coefficient Caco-2 Papp
Method: 1) Preparation of Culture Medium. […] The apparent permeability coefficient was calculated as the following equation. […] [formula] • Papp is apparent permeability coefficient. […] (0.33 cm^2) • The concentrations of test compounds were determined using LC/MS/MS.
Recorded Papp at 1 h, 100 μM by entry
The figure you give is taken to be in ×10⁻⁶ cm/s; do not add the unit.

These recorded examples may help you get a feel for the data.
>>> observed("CC(C)c1cc(C(=O)O)ccc1-c1ccc(OCCN[C@@H](C)[C@H](O)c2ccc(O)cc2)cc1 [Compound 156]")
3.4
>>> observed("Cc1cc(C(=O)O)ccc1-c1cc(C)c(OCCN[C@@H](C)[C@H](O)c2ccc(O)cc2)c(C)c1 [Compound 3]")
19.9
>>> observed("CCCc1cc(C(=O)O)ccc1-c1ccc(OCCN[C@@H](C)[C@H](O)c2ccc(O)cc2)cc1 [Compound 160]")
4

Now look at this one.
[Q] # query: Papp at 1 h, 100 μM of entry Cc1cc(-c2ccc(C(=O)O)c(C(C)C)c2)cc(C)c1OCCN[C@@H](C)[C@H](O)c1ccc(O)cc1 [Compound 4]
[A] 15.7

----------
biological target: human β2-adrenoceptor (Homo sapiens); construct: expressed in transfected cells; host or cells: CHO cells; assay: Agonistic activities on human β2-adrenoceptor (cAMP in transfected CHO cells); format: cell-based; details: intrinsic activity: maximum reaction relative to isoproterenol maximum (100%)
Sequence (P07550 whole entry): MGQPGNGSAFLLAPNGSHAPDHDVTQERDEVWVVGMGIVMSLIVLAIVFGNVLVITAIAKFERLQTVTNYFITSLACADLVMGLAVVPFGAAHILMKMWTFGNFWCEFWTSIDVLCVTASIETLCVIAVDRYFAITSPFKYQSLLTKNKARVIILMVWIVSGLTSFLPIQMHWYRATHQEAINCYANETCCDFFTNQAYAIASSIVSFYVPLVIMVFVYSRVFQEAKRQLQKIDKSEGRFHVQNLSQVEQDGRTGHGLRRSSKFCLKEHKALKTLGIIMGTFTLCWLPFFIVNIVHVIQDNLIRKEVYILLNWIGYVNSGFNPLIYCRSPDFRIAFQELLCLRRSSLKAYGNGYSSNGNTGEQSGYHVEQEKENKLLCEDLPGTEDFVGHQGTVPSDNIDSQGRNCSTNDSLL
Measured β2 receptor I.A. values are reported for all entries that follow.
Entry format: amount then unit.

Below, 5 compounds whose answers are already recorded.
>>> observed("CCCc1cc(C(=O)O)ccc1-c1cc(C)c(OCCN[C@@H](C)[C@H](O)c2ccc(O)cc2)c(C)c1 [Compound 26]")
"49%"
>>> observed("O=C(O)c1cccc(-c2cccc(OCCNC[C@H](O)c3cccc(Cl)c3)c2)c1 [Comparison, reference compound]")
"15%"
>>> observed("CCc1cc(C(=O)O)ccc1-c1ccc(OCCN[C@@H](C)[C@H](O)c2ccc(O)cc2)cc1 [Compound 153]")
"28%"
>>> observed("Cc1cc(-c2ccc(C(=O)O)c(C(C)C)c2)cc(C)c1OCCN[C@@H](C)[C@H](O)c1ccc(O)cc1 [Compound 4]")
"27%"
>>> observed("CCCc1cc(C(=O)O)ccc1-c1ccc(OCCN[C@@H](C)[C@H](O)c2ccc(O)cc2)cc1 [Compound 160]")
"32%"

Next item in the queue.
[Q] Notebook: pull reported β2 receptor I.A. for human β2-adrenoceptor (Homo sapiens), entry CC(C)c1cc(C(=O)O)ccc1-c1ccc(OCCN[C@@H](C)[C@H](O)c2ccc(O)cc2)cc1 [Compound 156]
[A] 27%

----------
Biological target: human β3-adrenoceptor (Homo sapiens, UniProt P13945)
Construct: SK-N-MC cells (American Type Culture Collection, 1×10^5 cell/mL) were put in 96 well plates; host or cells: SK-N-MC cells
Sequence (P13945 whole entry): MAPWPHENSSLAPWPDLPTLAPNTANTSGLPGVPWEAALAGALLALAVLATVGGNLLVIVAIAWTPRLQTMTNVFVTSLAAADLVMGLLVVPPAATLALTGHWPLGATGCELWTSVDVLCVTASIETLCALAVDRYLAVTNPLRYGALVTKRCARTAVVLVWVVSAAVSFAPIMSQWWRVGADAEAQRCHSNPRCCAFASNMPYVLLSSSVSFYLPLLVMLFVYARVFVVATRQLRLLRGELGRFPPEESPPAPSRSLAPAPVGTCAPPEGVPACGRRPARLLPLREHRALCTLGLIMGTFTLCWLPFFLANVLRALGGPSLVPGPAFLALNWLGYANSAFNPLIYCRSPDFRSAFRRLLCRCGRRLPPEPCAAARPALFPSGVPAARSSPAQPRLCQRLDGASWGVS
Assay: Agonistic activities on human β3-adrenoceptor (cAMP accumulation in SK-N-MC cells)
Type: cell-based
Settings: intrinsic activity: maximum reaction relative to isoproterenol maximum (100%)
Method: 1. Measurement of Agonistic Activities on Human β3-adrenoceptor Test compounds were dissolved in 50% dimethyl sulfoxide to make a 10^−2 M solution. Then, a series of 1:10 dilutions containing a maximal dose of 1×10^−4 M were prepared using D-PBS (−) (Gibco-BRL: LIFE TECHNOLOGIES). The series were used for a testing sample to measure activity. SK-N-MC cells (American Type Culture Collection, 1×10^5 cell/mL) were put in 96 well plates by 100 μL and were cultured for about 24 hours. […]
Form field: β3 receptor I.A. (one value per entry).
// return numeric value only (unit: %, not printed)

Illustrative cases are given below, each with its answer.
>>> observed("CCCc1cc(C(=O)O)ccc1-c1ccc(OCCN[C@@H](C)[C@H](O)c2ccc(O)cc2)cc1")
91
>>> observed("CCCc1cc(C(=O)O)ccc1-c1cc(C)c(OCCN[C@@H](C)[C@H](O)c2ccc(O)cc2)c(C)c1")
125
>>> observed("CC(C)NCC(O)c1ccc(O)c(O)c1 (stereo not shown) [Isoproterenol, reference compound]")
100
>>> observed("CCc1cc(C(=O)O)ccc1-c1ccc(OCCN[C@@H](C)[C@H](O)c2ccc(O)cc2)cc1")
97
>>> observed("CC(C)c1cc(C(=O)O)ccc1-c1ccc(OCCN[C@@H](C)[C@H](O)c2ccc(O)cc2)cc1")
239
>>> observed("Cc1cc(-c2ccc(C(=O)O)c(C(C)C)c2)cc(C)c1OCCN[C@@H](C)[C@H](O)c1ccc(O)cc1")
94

Next up:
[Q] Which β3 receptor I.A. is reported for this compound? O=C(O)c1cccc(-c2cccc(OCCNC[C@H](O)c3cccc(Cl)c3)c2)c1 [Comparison, reference compound]
[A] 41

----------
biological target: human β3-adrenoceptor (Homo sapiens, UniProt P13945); construct: SK-N-MC cells (American Type Culture Collection, 1×10^5 cell/mL) were put in 96 well plates; host or cells: SK-N-MC cells; experiment: Agonistic activities on human β3-adrenoceptor (cAMP accumulation in SK-N-MC cells); type: cell-based; settings: read-out: β3 receptor EC50
recorded.metric: pEC50
Units for pEC50: none; it is -log10 of a concentration expressed in mol/L.

>>> observed("Cc1cc(-c2ccc(C(=O)O)c(C(C)C)c2)cc(C)c1OCCN[C@@H](C)[C@H](O)c1ccc(O)cc1")
6.62
>>> observed("CCCc1cc(C(=O)O)ccc1-c1ccc(OCCN[C@@H](C)[C@H](O)c2ccc(O)cc2)cc1")
6.70
>>> observed("CC(C)c1cc(C(=O)O)ccc1-c1ccc(OCCN[C@@H](C)[C@H](O)c2ccc(O)cc2)cc1")
7.60
>>> observed("CCCc1cc(C(=O)O)ccc1-c1cc(C)c(OCCN[C@@H](C)[C@H](O)c2ccc(O)cc2)c(C)c1")
7.24

[Q] What value of pEC50 has been reported for the following molecule? `CCc1cc(C(=O)O)ccc1-c1ccc(OCCN[C@@H](C)[C@H](O)c2ccc(O)cc2)cc1`
[A] 6.32
